subject of test: Galanin receptor type 3 (Homo sapiens) (UniProt O60755)
Sequence (O60755 1-299 limits assumed): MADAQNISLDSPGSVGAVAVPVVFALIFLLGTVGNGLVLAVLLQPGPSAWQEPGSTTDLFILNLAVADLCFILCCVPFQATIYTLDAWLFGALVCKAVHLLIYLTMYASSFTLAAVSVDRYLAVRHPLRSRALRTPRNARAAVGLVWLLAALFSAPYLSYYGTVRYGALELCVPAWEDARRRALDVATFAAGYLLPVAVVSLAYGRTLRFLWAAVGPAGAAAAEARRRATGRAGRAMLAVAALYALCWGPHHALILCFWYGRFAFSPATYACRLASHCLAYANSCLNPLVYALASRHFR
measurement description: GalR3 antagonists in HEK293 cells, primary screen, cell-based, fluorescence readout (AID 651719);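 note: forskolin and galanin both at EC90 stimulate the cells; cAMP rise reported by CNG channel membrane potential dye signal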
study conditions: HEK293 GalR3-CNG cAMP membrane potential fluorescence; at 3 µM; galR3 body fused to GalR1 C-terminus
Out of some 360,000 compounds screened, about 1,600 (0.44%) were called active.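 Rule for the calls: active = inhibition above the screen-wide average plus 3 SD (cut at about 13% in these data); inactive = the rest.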 For the sample, actives were picked, then their nearest neighbours and some compounds at random.
Possible outcomes: active, inactive

| compound | subject of test | assigned label |
| --- | --- | --- |
| CC(=O)c1ccc(NC(=O)N[C@@H](Cc2ccccc2)C(=O)O)cc1 | Galanin receptor type 3 (Homo sapiens) (UniProt O60755) | inactive |
| O=C(CC1C(=O)NCCN1CC(c1ccccc1)c1ccccc1)NCC1CCOCC1 (stereo not given) | Galanin receptor type 3 (Homo sapiens) (UniProt O60755) | inactive |
| CC1(C)CC(N2CCN(C(c3ccccc3)c3ccccc3)CC2)=CC(=[N+]2CCCCC2)C1 | Galanin receptor type 3 (Homo sapiens) (UniProt O60755) | active |
| Nc1nc(NCC(=O)O)nc(N2CCCCCC2)c1[N+](=O)[O-] | Galanin receptor type 3 (Homo sapiens) (UniProt O60755) | active |
| CCOC(=O)c1c(NC(=O)CSc2nnc(Cc3csc(N)n3)n2C)sc(C)c1C | Galanin receptor type 3 (Homo sapiens) (UniProt O60755) | inactive |
| CC1CN(c2nc(Nc3ccccc3)nc(N)c2[N+](=O)[O-])CC(C)O1 (stereo not given) | Galanin receptor type 3 (Homo sapiens) (UniProt O60755) | inactive |
| Cc1ccc(F)cc1NC(=O)Cc1nn(C)c(=O)c2ccccc12 | Galanin receptor type 3 (Homo sapiens) (UniProt O60755) | active |
| COc1ccc(OC)c(C(=O)NC2CCCc3c2cnn3-c2cc(C)cc(C)c2)c1 (stereo not given) | Galanin receptor type 3 (Homo sapiens) (UniProt O60755) | inactive |
| CCOC(=O)c1c(NC(=O)CSc2nccc(=O)[nH]2)sc(C)c1C | Galanin receptor type 3 (Homo sapiens) (UniProt O60755) | active |
| CCCCCCCCN1C(=O)[C@@H](CC(=O)NCc2ccccc2)C[C@@]2(C(=O)OC)C1=C[C@H](C(C)(C)C)O[C@@H]2C | Galanin receptor type 3 (Homo sapiens) (UniProt O60755) | inactive |
| COCCNc1nc(N)c([N+](=O)[O-])c(N2CCCCCC2)n1 | Galanin receptor type 3 (Homo sapiens) (UniProt O60755) | inactive |
| O=C(NCc1ccccc1)[C@@H]1CCCN1C(=O)[C@H]1CCCN1C(=O)c1cccc(Cl)c1 | Galanin receptor type 3 (Homo sapiens) (UniProt O60755) | inactive |
| Cc1cccc(N2CCN(C(c3ccccc3)c3nnnn3CC3CCCO3)CC2)c1C (stereo not given) | Galanin receptor type 3 (Homo sapiens) (UniProt O60755) | inactive |
| COCc1c(C(=O)N/N=C\c2cccnc2)nnn1-c1nonc1N | Galanin receptor type 3 (Homo sapiens) (UniProt O60755) | inactive |
| COc1ccc(CCNc2nc(C)cc(C)n2)cc1OC | Galanin receptor type 3 (Homo sapiens) (UniProt O60755) | inactive |
| COc1ccc(C(=O)NC2CCCc3c2cnn3-c2cccc(C)c2C)c(OC)n1 (stereo not given) | Galanin receptor type 3 (Homo sapiens) (UniProt O60755) | inactive |
| COc1ccc(-c2[nH]nc3c2C(c2ccncc2)C(C#N)=C(N)O3)cc1 (stereo not given) | Galanin receptor type 3 (Homo sapiens) (UniProt O60755) | active |
| Cn1nccc1C(=O)NC1CCCc2c1cnn2-c1ccccc1F (stereo not given) | Galanin receptor type 3 (Homo sapiens) (UniProt O60755) | active |
| O=C(N[C@H](Cc1ccccc1)C(=O)N1CCCN(Cc2cccs2)CC1)[C@H]1O[C@@H](n2ccc(=O)[nH]c2=O)[C@H](O)[C@@H]1O | Galanin receptor type 3 (Homo sapiens) (UniProt O60755) | inactive |
| COc1cccc(OCc2cc(C(=O)N3CCN(C(=O)c4ccco4)CC3)no2)c1 | Galanin receptor type 3 (Homo sapiens) (UniProt O60755) | inactive |
| COC(=O)c1c(-c2ccc(OC)cc2)c2c(c3c4cc(OC)ccc4n(S(=O)(=O)c4ccc(F)cc4)c13)C(=O)N(C)C2 | Galanin receptor type 3 (Homo sapiens) (UniProt O60755) | inactive |
| Cn1nccc1C(=O)NC1CCCc2c1cnn2-c1ccc(F)cc1F (stereo not given) | Galanin receptor type 3 (Homo sapiens) (UniProt O60755) | active |
| CN(CCc1cn[nH]c1)C(=O)CC1C(=O)NCCN1Cc1cccc(Oc2ccccc2)c1 (stereo not given) | Galanin receptor type 3 (Homo sapiens) (UniProt O60755) | inactive |
| CCOc1ccc(C(C)=O)cc1COC(=O)c1cnc(Cl)c(Cl)c1 | Galanin receptor type 3 (Homo sapiens) (UniProt O60755) | active |
| C[C@H]1[C@H](c2ccccc2)Oc2cc(Br)ccc2S(=O)(=O)N1Cc1cccc(F)c1 | Galanin receptor type 3 (Homo sapiens) (UniProt O60755) | inactive |
| COc1ccccc1NC(=S)N1CCN(C(c2ccccc2)c2ccccc2)CC1 | Galanin receptor type 3 (Homo sapiens) (UniProt O60755) | inactive |
| CC(C[N+](C)(C)C)OC(N)=O (stereo not given) | Galanin receptor type 3 (Homo sapiens) (UniProt O60755) | inactive |
| Cc1ccc(C)c(NC(=O)COC(=O)c2nn(C)c(=O)c3ccccc23)c1 | Galanin receptor type 3 (Homo sapiens) (UniProt O60755) | inactive |
| COc1cc(Nc2nc3ccc(Cl)cc3n3cnnc23)cc(OC)c1OC | Galanin receptor type 3 (Homo sapiens) (UniProt O60755) | inactive |
| Nc1nc2c(ncn2[C@@H]2O[C@H](C(=O)N[C@@H](Cc3ccccc3)C(=O)NCc3ccccc3)[C@@H](O)[C@H]2O)c(=O)[nH]1 | Galanin receptor type 3 (Homo sapiens) (UniProt O60755) | inactive |
| COc1ccc(C2C(C#N)=C(N)Oc3n[nH]c(C)c32)cc1CN1CCN(c2ccc(F)cc2)CC1 (stereo not given) | Galanin receptor type 3 (Homo sapiens) (UniProt O60755) | inactive |
| COC(=O)C1=C(C)N(Cc2ccccc2C(F)(F)F)C(=NCC2CC2)NC1c1cccc(Cl)c1 (stereo not given) | Galanin receptor type 3 (Homo sapiens) (UniProt O60755) | inactive |
| CCCc1nc2c([nH]1)C(c1cccnc1)C(C#N)=C(N)O2 (stereo not given) | Galanin receptor type 3 (Homo sapiens) (UniProt O60755) | inactive |
| N#Cc1cccc(C(=O)NCC2CCN(C(=O)C(=O)c3cc4ccccc4o3)CC2)c1 | Galanin receptor type 3 (Homo sapiens) (UniProt O60755) | inactive |
| CCOC(=O)c1c(NC(=O)CSc2nnc(CNc3ccc(C)cc3C)o2)sc(C)c1C | Galanin receptor type 3 (Homo sapiens) (UniProt O60755) | inactive |
| O=C(CC1C(=O)NCCN1CC(c1ccccc1)c1ccccc1)NCCc1cn[nH]c1 (stereo not given) | Galanin receptor type 3 (Homo sapiens) (UniProt O60755) | active |
| CC(=O)OC(C)C[N+](C)(C)C (stereo not given) | Galanin receptor type 3 (Homo sapiens) (UniProt O60755) | active |
| C[C@H](O)[C@@H]1CN2CCc3ccc(-c4ccc5c(c4)OCO5)cc3[C@@H]2C[C@@H]1N(C)C(=O)C1CCCCC1 | Galanin receptor type 3 (Homo sapiens) (UniProt O60755) | inactive |
| Cc1[nH]nc2c1C(c1ccc(Br)cc1)NC2=O (stereo not given) | Galanin receptor type 3 (Homo sapiens) (UniProt O60755) | inactive |
| Cc1ccc(F)cc1NC(=O)CSCc1c(C)noc1C | Galanin receptor type 3 (Homo sapiens) (UniProt O60755) | inactive |
